clearance for assorted compounds
Assay: Clearance in Sprague-Dawley rat at 1 mg/kg, iv
Type: ADME, organism-based
Design: dose 1 mg/kg, route intravenous
Details: in vivo
Readout Type: clearance (mL/min/kg)

• CC(=O)N1N=C(c2cc(F)ccc2F)S[C@@]12c1cc(F)c(F)cc1OC[C@H]2CCN = 49
• CC(=O)N1N=C(c2cc(F)ccc2F)S[C@@]12c1cc(F)ccc1OC[C@H]2CCN = 109
• CC(=O)N1N=C(c2cc(F)ccc2F)S[C@@]12c1cc(F)cc(F)c1OC[C@H]2CCN = 50
• CC(=O)N1N=C(c2cc(F)ccc2F)S[C@@]12c1ccccc1OC[C@H]2CCN = 46

---

Biological target: Kinesin-like protein KIF11 (Homo sapiens, UniProt P52732)
Sequence (P52732 whole entry): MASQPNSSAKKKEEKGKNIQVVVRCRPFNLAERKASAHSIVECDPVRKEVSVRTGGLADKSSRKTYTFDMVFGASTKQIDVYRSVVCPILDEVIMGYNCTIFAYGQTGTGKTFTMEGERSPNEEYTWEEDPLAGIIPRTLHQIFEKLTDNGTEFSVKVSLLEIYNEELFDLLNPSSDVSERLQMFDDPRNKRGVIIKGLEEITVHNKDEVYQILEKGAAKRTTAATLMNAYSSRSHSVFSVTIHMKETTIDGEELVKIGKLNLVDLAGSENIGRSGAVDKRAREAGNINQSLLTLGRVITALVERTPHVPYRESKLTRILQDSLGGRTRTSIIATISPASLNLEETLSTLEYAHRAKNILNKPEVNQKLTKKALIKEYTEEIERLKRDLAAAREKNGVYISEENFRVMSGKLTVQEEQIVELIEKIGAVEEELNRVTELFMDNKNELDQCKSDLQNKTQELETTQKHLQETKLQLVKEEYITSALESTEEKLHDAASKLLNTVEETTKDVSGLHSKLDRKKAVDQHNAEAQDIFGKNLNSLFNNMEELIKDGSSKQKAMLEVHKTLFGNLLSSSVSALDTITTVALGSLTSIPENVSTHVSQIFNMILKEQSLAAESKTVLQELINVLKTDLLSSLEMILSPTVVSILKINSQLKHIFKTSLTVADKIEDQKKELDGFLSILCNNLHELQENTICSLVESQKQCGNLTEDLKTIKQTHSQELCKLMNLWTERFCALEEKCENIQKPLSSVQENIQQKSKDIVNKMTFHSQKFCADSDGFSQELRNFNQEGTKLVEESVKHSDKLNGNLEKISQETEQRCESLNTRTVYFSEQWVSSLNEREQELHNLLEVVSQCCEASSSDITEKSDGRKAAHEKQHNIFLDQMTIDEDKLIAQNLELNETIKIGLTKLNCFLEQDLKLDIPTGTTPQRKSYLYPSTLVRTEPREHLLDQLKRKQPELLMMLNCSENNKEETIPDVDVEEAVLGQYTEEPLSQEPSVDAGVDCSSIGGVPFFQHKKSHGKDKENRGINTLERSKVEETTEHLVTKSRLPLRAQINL
Test: Inhibition of KSP in human HCT116 cells assessed as phos-histone H3 level by immunofluorescent assay
pEC50: −log10 of the molar value.
Rule: Criterion met for pEC50 not less than 8, Criterion not met for anything less.

• CC(=O)N1N=C(c2cc(F)ccc2F)S[C@]12c1ccccc1OC[C@H]2CCN = Criterion not met
• CCC(=O)N1N=C(c2cc(F)ccc2F)SC12CCOc1ccccc12 (configuration not stated) = Criterion not met
• NCCCC(=O)N1N=C(c2cc(F)ccc2F)SC12CCOc1ccccc12 (configuration not stated) = Criterion not met
• NCCC(=O)N1N=C(c2cc(F)ccc2F)SC12CCOc1ccccc12 (configuration not stated) = Criterion not met
• CC(=O)N1N=C(c2cc(F)ccc2F)SC12CCNc1ccccc12 (configuration not stated) = Criterion not met
• CC(=O)N1CCC2(SC(c3cc(F)ccc3F)=NN2C(C)=O)c2ccccc21 (configuration not stated) = Criterion not met
• CC(=O)N1N=C(c2cc(F)ccc2F)SC12CCN(C)c1ccccc12 (configuration not stated) = Criterion not met
• CC(=O)N1N=C(c2cc(F)ccc2F)S[C@@]12c1cccc(F)c1OC[C@H]2CCN = Criterion met
• CC(=O)N1N=C(c2cc(F)ccc2F)S[C@@]12c1cc(F)cc(F)c1OC[C@H]2CCN = Criterion met
• CC(=O)N1N=C(c2cc(F)ccc2F)S[C@]12c1ccccc1OC[C@@H]2CCN = Criterion not met
• CC(=O)N1N=C(c2cc(F)ccc2F)SC12c1ccccc1OCC2CCN (racemic) = Criterion met
• CC(=O)N1N=C(c2cc(F)ccc2F)S[C@@]12c1ccccc1OC[C@H]2CCN = Criterion met
• CC(=O)N1N=C(c2cc(F)ccc2F)SC12COc1ccccc12 (configuration not stated) = Criterion not met
• CC(=O)N1N=C(c2cc(F)ccc2F)SC12CCOc1ccccc12 (configuration not stated) = Criterion not met
• CC(=O)N1N=C(c2cc(F)ccc2F)SC12CCCOc1ccccc12 (configuration not stated) = Criterion not met

---

Test: Permeability across apical to basolateral side in human Caco2 cells
Type: ADME, cell-based
Details: Caco-2, read-out: permeability
Readout Type: Papp A→B (×10⁻⁶ cm/s)

• CC(=O)N1N=C(c2cc(F)ccc2F)S[C@@]12c1cc(F)c(F)cc1OC[C@H]2CCN = 10.6

---

Test: Oral bioavailability in CD1 mouse at 5 mg/kg
Assay type: ADME, organism-based
Details: in vivo
Readout Type: bioavailability (%)

• CC(=O)N1N=C(c2cc(F)ccc2F)S[C@@]12c1ccccc1OC[C@H]2CCN = 12
